Test: in vitro
Settings: human, hela cells, % viability
Measure: viability at 28.5 h, 10 µM (%)
Report only the number, with the unit % understood.

Examples with their reported viability at 28.5 h, 10 µM follow.
CSc1ncc(C(=O)NC2CCCC2)c(NC2CCCC2)n1 ... 91.3
CC1(C(=O)N2CCc3onc(-c4ccccc4F)c3C2)CCCO1 (centres unmarked) ... 88.1
COc1cc2c(cc1OC)CN(C(=O)CSc1nnc3ccccn13)CC2 ... 94.8
O=C1/C(=C/c2ccccc2)S/C(=N/N=C/c2ccccc2)N1c1ccc(O)cc1 ... 89.6
O=[N+]([O-])c1ccc(Oc2cccc(Cl)c2Cl)c(C(F)(F)F)c1 ... 82.8
c1ccc2c(c1)nc(N1CCOCC1)n2CCN1CCOCC1 ... 99.6
CCC(C)(CC(=O)O)CC(=O)N1CCC2(CC1)OCCc1c2[nH]c2ccccc12 (centres unmarked) ... 102
Nc1c(Cl)cc(NC(=O)CCCC(=O)O)cc1Cl ... 91

Query: State the recorded viability at 28.5 h, 10 µM for this entry: `CC(C)Oc1ncc(C(=O)NCCCC(=O)O)cc1Cl`
Reply: 107

Query: Entry to check: Cc1ccc2nc(N3CCCC(O)C3)c(CN3CCSCC3)cc2c1 (centres unmarked)
Reply: 94.7

Query: Entry to check: `O=C(c1ccccc1)c1ccccc1-n1nccn1`
Reply: 99

Query: Entry to check: CC1=NN(c2ccccc2)C(=O)C1C(=O)c1ccccc1 (centres unmarked)
Reply: 99.3

Query: Entry to check: OCCC1CNCCN1CC1CCCCC1 (centres unmarked)
Reply: 97.2

Query: Entry to check: `Cc1cnc(CNC(=O)N2CCN(Cc3ccccc3)CC2)cn1`
Reply: 99.3

Query: Entry to check: `COc1ccc(-c2cncc(NCC3CCOCC3)n2)cc1`
Reply: 96.5

Query: Entry to check: `CN1CCC(CNC(=O)C2(c3ccccc3F)CC2)(N(C)C)CC1`
Reply: 91.6

Query: Entry to check: `CN1CCN(C(=O)c2cccc(-c3nccnc3NCc3cccc(Cl)c3)c2)CC1`
Reply: 108

Query: Entry to check: `Cc1ccc(F)c(CN2CCN(CCO)[C@@H]3CS(=O)(=O)C[C@@H]32)c1`
Reply: 93.6

Query: Entry to check: `O=C(c1ccco1)N1CCN(c2cc(-c3cc(C(F)(F)F)cc(C(F)(F)F)c3)ncn2)CC1`
Reply: 102

Query: Entry to check: `O=[N+]([O-])c1ccc(N2CCN(S(=O)(=O)c3ccccc3)CC2)cc1Sc1cccc2cccnc12`
Reply: 100
